tested on: SF-268; experiment: Cytotoxicity against human SF268 cells after 48 hrs by sulforhodamine B assay; type: cell-based; settings: sf-268, 48 h
MEASUREMENT_NAME: LC50

Would you please look over these solved cases?
*Q* Entry under review: `O=C1/C(=C/c2ccccc2)CNC/C1=C\c1ccccc1` . Reported LC50?
*A* 9.1 µM

*Q* Entry under review: COc1cc(/C=C/C(=O)CC(=O)/C=C/c2ccc(O)c(OC)c2)ccc1O [CURCUMIN] . Reported LC50?
*A* 61 µM

***
*Q* Entry under review: `O=C1/C(=C/c2ccc3[nH]ccc3c2)CNC/C1=C\c1ccc2[nH]ccc2c1` . Reported LC50?
*A* > 100 µM

*Q* Entry under review: `O=C1/C(=C/c2cccs2)CNC/C1=C\c1cccs1` . Reported LC50?
*A* > 100 µM

*Q* Entry under review: `Cc1ccsc1/C=C1\CNC/C(=C\c2sccc2C)C1=O` . Reported LC50?
*A* > 100 µM

*Q* Entry under review: `Cc1ccc(/C=C2\CNC/C(=C\c3ccc(C)s3)C2=O)s1` . Reported LC50?
*A* > 100 µM

###

assay: Inhibition of soybean 5LOX assessed as conversion of sodium linoleate to 13-[…] acid; parameters: species or system Glycine max
MEASUREMENT_NAME: IC50 (µM)
Your answer should be a plain number; it is taken to be in µM.

Would you please look over these solved cases?
*Q* Entry under review: `O=C1/C(=C/c2c[nH]c3ccccc23)CNC/C1=C\c1c[nH]c2ccccc12` . Reported IC50?
*A* 280

*Q* Entry under review: `O=C1/C(=C/c2cccs2)CNC/C1=C\c1cccs1` . Reported IC50?
*A* 330

Continue with the next molecule.
*Q* Entry under review: `O=C1/C(=C/c2ccc3[nH]ccc3c2)CNC/C1=C\c1ccc2[nH]ccc2c1` . Reported IC50?
*A* 410

###

tested on: SF-268; assay: Antiproliferative activity against human SF268 cells after 48 hrs by sulforhodamine B assay; format: functional; conditions: SF-268, 48 h
// reported TGI for each item listed

*Q* Entry under review: `O=C1/C(=C/c2ccccc2)CNC/C1=C\c1ccccc1` . Reported TGI?
*A* 4.7 µM

###

system: SF-268; experiment: Antiproliferative activity against human SF268 cells after 48 hrs by sulforhodamine B assay; assay type: functional; conditions: SF-268, 48 h
MEASUREMENT_NAME: TGI

*Q* Entry under review: `O=C1/C(=C/c2c[nH]c3ccccc23)CNC/C1=C\c1c[nH]c2ccccc12` . Reported TGI?
*A* 5.7 µM

*Q* Entry under review: `O=C1/C(=C/c2ccc(OCc3ccc(Br)cc3)cc2)CNC/C1=C\c1ccc(OCc2ccc(Br)cc2)cc1` . Reported TGI?
*A* > 100 µM

Continue with the next compound.
*Q* Entry under review: `Cc1ccc(/C=C2\CNC/C(=C\c3ccc(C)s3)C2=O)s1` . Reported TGI?
*A* > 100 µM

###

system: Glycine max; experiment: Inhibition of soybean 5LOX assessed as conversion of sodium linoleate to 13-[…] acid at 100 uM
Calls of active or inactive are those of the source. The rule behind the calls is not given here.
MEASUREMENT_NAME: inhibition

Would you please look over these solved cases?
*Q* Entry under review: `Cc1ccsc1/C=C1\CNC/C(=C\c2sccc2C)C1=O` . Reported inhibition?
*A* inactive

*Q* Entry under review: `Cc1ccc(/C=C2\CNC/C(=C\c3ccc(C)s3)C2=O)s1` . Reported inhibition?
*A* inactive

*Q* Entry under review: COc1cc(/C=C/C(=O)CC(=O)/C=C/c2ccc(O)c(OC)c2)ccc1O [CURCUMIN] . Reported inhibition?
*A* 38%

*Q* Entry under review: `O=C1/C(=C/c2ccc(OCc3ccc(Br)cc3)cc2)CNC/C1=C\c1ccc(OCc2ccc(Br)cc2)cc1` . Reported inhibition?
*A* 18%

*Q* Entry under review: `O=C1/C(=C/c2c[nH]cn2)CNC/C1=C\c1c[nH]cn1` . Reported inhibition?
*A* 36%

Continue with the next compound.
*Q* Entry under review: `O=C1/C(=C/c2ccccc2)CNC/C1=C\c1ccccc1` . Reported inhibition?
*A* 8%

###

test system: MCF7; assay: Cytotoxicity against human MCF7 cells after 48 hrs by sulforhodamine B assay; format: cell-based; details: mcf7, 48 h
MEASUREMENT_NAME: LC50

*Q* Tell me reported LC50 for `O=C1/C(=C/c2c[nH]cn2)CNC/C1=C\c1c[nH]cn1` , tested with MCF7.
*A* > 100 µM

Continue with the next compound.
*Q* Tell me reported LC50 for `Cc1ccsc1/C=C1\CNC/C(=C\c2sccc2C)C1=O` , tested with MCF7.
*A* > 100 µM

###

// reported inhibition in vivo at 10 µmol/kg for each item listed
test system: Rattus norvegicus; assay: Antiinflammatory activity in carrageenan-induced Fischer-344 rat paw oedema at 0.01 mmol/kg, ip after 3.5 hrs; format: functional; details: Fischer-344, ip
Your answer should be a plain number; it is taken to be in %.

Would you please look over these solved cases?
*Q* Entry under review: `Cc1ccsc1/C=C1\CNC/C(=C\c2sccc2C)C1=O` . Reported inhibition in vivo at 10 µmol/kg?
*A* 27

*Q* Entry under review: `COc1ccc2c(c1)c(CC(=O)O)c(C)n2C(=O)c1ccc(Cl)cc1` . Reported inhibition in vivo at 10 µmol/kg?
*A* 47

*Q* Entry under review: `Cc1ccc(/C=C2\CNC/C(=C\c3ccc(C)s3)C2=O)s1` . Reported inhibition in vivo at 10 µmol/kg?
*A* 62

***
*Q* Entry under review: `O=C1/C(=C/c2c[nH]cn2)CNC/C1=C\c1c[nH]cn1` . Reported inhibition in vivo at 10 µmol/kg?
*A* 11.5

*Q* Entry under review: `O=C1/C(=C/c2ccc3[nH]ccc3c2)CNC/C1=C\c1ccc2[nH]ccc2c1` . Reported inhibition in vivo at 10 µmol/kg?
*A* 36

*Q* Entry under review: `O=C1/C(=C/c2ccc(OCc3ccc(Br)cc3)cc2)CNC/C1=C\c1ccc(OCc2ccc(Br)cc2)cc1` . Reported inhibition in vivo at 10 µmol/kg?
*A* 49

*Q* Entry under review: `O=C1/C(=C/c2c[nH]c3ccccc23)CNC/C1=C\c1c[nH]c2ccccc12` . Reported inhibition in vivo at 10 µmol/kg?
*A* 33

*Q* Entry under review: `O=C1/C(=C/c2ccccc2)CNC/C1=C\c1ccccc1` . Reported inhibition in vivo at 10 µmol/kg?
*A* 43

###

system: SF-268; experiment: Cytotoxicity against human SF268 cells after 48 hrs by sulforhodamine B assay; format: cell-based; conditions: sf-268, 48 h
MEASUREMENT_NAME: LC50

Would you please look over these solved cases?
*Q* Tell me reported LC50 for `O=C1/C(=C/c2c[nH]cn2)CNC/C1=C\c1c[nH]cn1` , tested with SF-268.
*A* > 100 µM

*Q* Tell me reported LC50 for `O=C1/C(=C/c2c[nH]c3ccccc23)CNC/C1=C\c1c[nH]c2ccccc12` , tested with SF-268.
*A* 8.2 µM

Continue with the next molecule.
*Q* Tell me reported LC50 for `O=C1/C(=C/c2ccc(OCc3ccc(Br)cc3)cc2)CNC/C1=C\c1ccc(OCc2ccc(Br)cc2)cc1` , tested with SF-268.
*A* > 100 µM

###

experiment: Therapeutic index, ratio of LC50 for human MCF7 cells to GI50 for human MCF7 cells; format: cell-based; details: read-out: TI
MEASUREMENT_NAME: selectivity ratio
Lab note: jot down the number only; don't add units.

*Q* Entry under review: `Cc1ccc(/C=C2\CNC/C(=C\c3ccc(C)s3)C2=O)s1` . Reported selectivity ratio?
*A* 1.2

*Q* Entry under review: `O=C1/C(=C/c2ccc(OCc3ccc(Br)cc3)cc2)CNC/C1=C\c1ccc(OCc2ccc(Br)cc2)cc1` . Reported selectivity ratio?
*A* 2

*Q* Entry under review: COc1cc(/C=C/C(=O)CC(=O)/C=C/c2ccc(O)c(OC)c2)ccc1O [CURCUMIN] . Reported selectivity ratio?
*A* 14.2

*Q* Entry under review: `O=C1/C(=C/c2ccc3[nH]ccc3c2)CNC/C1=C\c1ccc2[nH]ccc2c1` . Reported selectivity ratio?
*A* 1.4

*Q* Entry under review: `O=C1/C(=C/c2c[nH]c3ccccc23)CNC/C1=C\c1c[nH]c2ccccc12` . Reported selectivity ratio?
*A* 2.2

*Q* Entry under review: `Cc1ccsc1/C=C1\CNC/C(=C\c2sccc2C)C1=O` . Reported selectivity ratio?
*A* 1.6

Continue with the next molecule.
*Q* Entry under review: `O=C1/C(=C/c2ccccc2)CNC/C1=C\c1ccccc1` . Reported selectivity ratio?
*A* 11.6

###

system: NCI-H460; assay: Cytotoxicity against human NCI-H460 cells after 48 hrs by sulforhodamine B assay; type: cell-based; details: nci-h460, 48 h
// reported LC50 for each item listed

Would you please look over these solved cases?
*Q* Tell me reported LC50 for `O=C1/C(=C/c2ccc3[nH]ccc3c2)CNC/C1=C\c1ccc2[nH]ccc2c1` , tested with NCI-H460.
*A* > 100 µM

*Q* Tell me reported LC50 for `Cc1ccsc1/C=C1\CNC/C(=C\c2sccc2C)C1=O` , tested with NCI-H460.
*A* > 100 µM

*Q* Tell me reported LC50 for `COc1cc(/C=C/C(=O)CC(=O)/C=C/c2ccc(O)c(OC)c2)ccc1O` , tested with NCI-H460.
*A* 83.4 µM

***
*Q* Tell me reported LC50 for `Cc1ccc(/C=C2\CNC/C(=C\c3ccc(C)s3)C2=O)s1` , tested with NCI-H460.
*A* > 100 µM

*Q* Tell me reported LC50 for `O=C1/C(=C/c2ccc(OCc3ccc(Br)cc3)cc2)CNC/C1=C\c1ccc(OCc2ccc(Br)cc2)cc1` , tested with NCI-H460.
*A* > 100 µM

*Q* Tell me reported LC50 for `O=C1/C(=C/c2cccs2)CNC/C1=C\c1cccs1` , tested with NCI-H460.
*A* > 100 µM

Source listed as ChEMBL document CHEMBL1795273.
